target: recombinant Mst1 (Homo sapiens); assay: Inhibition of Mst1 kinase activity, ELISA of Mob1 substrate phosphorylation; conditions: MST1 IC50, recombinant Mst1 11 nM; ATP 6.7 gIVI; GST-Mob1a substrate; 30° C. 15 min
pIC50: −log10 of the molar value.
Listing of entries alongside the reported pIC50.

Smiles entry	Lt gt eq	pIC50
CN1C(=O)c2ccccc2N(C)c2nc(Nc3ccc(S(N)(=O)=O)cc3)ncc21	=	7.15
O=C1Nc2cnc(Nc3ccc(S(=O)(=O)N4CCC(O)CC4)cc3)nc2N(C2CCCC2)c2ccccc21	<	4.52
CN1CCC(n2cc(Nc3ncc4c(n3)N(C)c3ccsc3C(=O)N4C)cn2)CC1	=	6.96

----------
molecular target: recombinant MST2 (Homo sapiens); test: Inhibition of Mst2 kinase activity, ELISA of Mob1 substrate phosphorylation; conditions: MST2 IC50, 3.7 nM recombinant MST2; ATP 11.2 gIVI; GST-Mob1a substrate; 30° C. 15 min
Sequence (Q13188 whole entry, species assumed): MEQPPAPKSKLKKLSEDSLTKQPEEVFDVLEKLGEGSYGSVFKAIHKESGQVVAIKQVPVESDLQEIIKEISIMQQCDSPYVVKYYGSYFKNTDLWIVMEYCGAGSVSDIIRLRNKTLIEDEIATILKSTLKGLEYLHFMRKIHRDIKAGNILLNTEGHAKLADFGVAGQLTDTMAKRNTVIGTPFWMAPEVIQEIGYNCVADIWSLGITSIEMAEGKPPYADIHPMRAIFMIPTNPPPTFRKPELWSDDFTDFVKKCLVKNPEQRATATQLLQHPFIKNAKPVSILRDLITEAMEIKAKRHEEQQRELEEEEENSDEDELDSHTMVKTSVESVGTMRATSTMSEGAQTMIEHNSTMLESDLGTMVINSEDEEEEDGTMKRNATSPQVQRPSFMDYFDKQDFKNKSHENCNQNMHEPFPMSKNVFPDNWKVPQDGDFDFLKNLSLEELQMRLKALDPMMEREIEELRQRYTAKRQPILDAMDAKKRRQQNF
Quantity name: log10 of IC50 (log10 of the value in nM)

Smiles entry	Target under test	log10 of IC50
CN1C(=O)c2ccccc2N(C2CCCC2)c2nc(Nc3ccc(S(=O)(=O)N4CCC(O)CC4)cc3)ncc21	recombinant MST2 (Homo sapiens)	4.20
CN1C(=O)c2cccc(F)c2N(C)c2nc(Nc3ccc(S(C)(=O)=O)cc3)ncc21	recombinant MST2 (Homo sapiens)	3.29
CN1C(=O)c2sccc2N(C)c2nc(Nc3ccc(O)cc3)ncc21	recombinant MST2 (Homo sapiens)	2.34
CN1C(=O)c2ccc(F)cc2N(C)c2nc(Nc3ccc(S(C)(=O)=O)cc3)ncc21	recombinant MST2 (Homo sapiens)	3.53
CSc1ccc(Nc2ncc3c(n2)N(C)c2ccsc2C(=O)N3C)cc1	recombinant MST2 (Homo sapiens)	3.24
CN1C(=O)c2sccc2N(C)c2nc(Nc3ccc(OC(=O)CCl)cc3)ncc21	recombinant MST2 (Homo sapiens)	3.35
CN1C(=O)c2sccc2N(C)c2nc(Nc3cn[nH]c3)ncc21	recombinant MST2 (Homo sapiens)	2.56
CN1C(=O)c2ccccc2N(C)c2nc(Nc3ccc(S(C)(=O)=O)cc3)ncc21	recombinant MST2 (Homo sapiens)	1.95
C=CS(=O)(=O)Nc1ccc(Nc2ncc3c(n2)N(C)c2ccsc2C(=O)N3C)cc1	recombinant MST2 (Homo sapiens)	2.61
CN1C(=O)c2sccc2N(C)c2nc(Nc3ccc(S(N)(=O)=O)cc3)ncc21	recombinant MST2 (Homo sapiens)	1.60
CN1C(=O)c2ccccc2N(C)c2nc(Nc3ccc(NS(C)(=O)=O)cc3)ncc21	recombinant MST2 (Homo sapiens)	1.90
CN1C(=O)c2sccc2N(C)c2nc(Nc3ccc(S(=O)(=O)NC4CC4)cc3)ncc21	recombinant MST2 (Homo sapiens)	1.30
CN1C(=O)c2sccc2N(C)c2nc(Nc3ccc(NC(=O)CBr)cc3)ncc21	recombinant MST2 (Homo sapiens)	4.10
CN1CCN(S(=O)(=O)c2ccc(Nc3ncc4c(n3)N(C)c3ccsc3C(=O)N4C)cc2)CC1	recombinant MST2 (Homo sapiens)	2.18
CN1C(=O)c2ccccc2N(C)c2nc(Nc3ccc(S(=O)(=O)N4CCC(O)CC4)cc3)ncc21	recombinant MST2 (Homo sapiens)	2.72
Cc1ccc2c(c1)N(C)c1nc(Nc3ccc(S(N)(=O)=O)cc3)ncc1N(C)C2=O	recombinant MST2 (Homo sapiens)	3.44
CN1C(=O)c2ccccc2N(C)c2nc(Nc3ccc(S(=O)(=O)Oc4ccccc4)cc3)ncc21	recombinant MST2 (Homo sapiens)	2.30

----------
Target: recombinant Mst1 (Homo sapiens, UniProt Q13043)
Sequence (Q13043 1-487): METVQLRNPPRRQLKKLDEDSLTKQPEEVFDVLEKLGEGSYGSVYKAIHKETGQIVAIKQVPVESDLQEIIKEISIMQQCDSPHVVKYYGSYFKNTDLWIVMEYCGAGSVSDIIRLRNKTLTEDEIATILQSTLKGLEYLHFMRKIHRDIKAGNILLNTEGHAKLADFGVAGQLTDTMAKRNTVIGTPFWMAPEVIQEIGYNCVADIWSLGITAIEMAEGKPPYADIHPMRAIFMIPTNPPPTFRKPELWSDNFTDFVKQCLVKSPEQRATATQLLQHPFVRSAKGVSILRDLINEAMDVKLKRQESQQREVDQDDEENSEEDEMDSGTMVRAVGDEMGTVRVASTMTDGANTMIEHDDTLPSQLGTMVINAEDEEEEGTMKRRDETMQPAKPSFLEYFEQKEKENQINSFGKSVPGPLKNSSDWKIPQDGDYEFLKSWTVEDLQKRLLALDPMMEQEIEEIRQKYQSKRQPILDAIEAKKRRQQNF
Test: Inhibition of Mst1 kinase activity, ELISA of Mob1 substrate phosphorylation
Conditions: MST1 IC50, recombinant Mst1 11 nM; ATP 6.7 gIVI; GST-Mob1a substrate; 30° C. 15 min
Experimental: We adopt a specific ELISA (Enzyme-linked immunosorbent assay) assay for measuring the biochemical activity (FIG. 1). Specific methods are as follows: 1. The substrate was diluted with purified recombinant GST-Mobla 200 nM in coating buffer, added to 96-well plates (Nalge Nunc International, Denmark), coated for overnight at 4° C., washed nextday three times with rinsing solution; a. A kinase reaction buffer; […]
Quantity name: IC50 (µM)

Compound	Target under test	Test result
CN1CCN(c2ccc(Nc3ncc4c(n3)N(C)c3ccsc3C(=O)N4C)cc2)CC1 [II-21]	recombinant Mst1 (Homo sapiens, UniProt Q13043)	0.25
CN1C(=O)c2sccc2N(C)c2nc(Nc3ccc(NC(=O)CCl)cc3)ncc21 [II-18]	recombinant Mst1 (Homo sapiens, UniProt Q13043)	3.34
CN1C(=O)c2cccc3c2N(CC3)c2nc(Nc3ccc(NS(C)(=O)=O)cc3)ncc21 [IV-1]	recombinant Mst1 (Homo sapiens, UniProt Q13043)	6.07
CCN1c2ccccc2C(=O)N(C)c2cnc(Nc3ccc(NS(C)(=O)=O)cc3)nc21 [ID-2]	recombinant Mst1 (Homo sapiens, UniProt Q13043)	0.08
CN1C(=O)c2ccc(F)cc2N(C)c2nc(Nc3ccc(S(C)(=O)=O)cc3)ncc21 [IH-8]	recombinant Mst1 (Homo sapiens, UniProt Q13043)	2.17
